In this section, each of the molecules is paired with its reported TGI.
test system: KM20L2 colon; assay: NCI tumour cell line growth inhibition, 48 h

COc1ccc(/C(=N/Nc2ccccc2)C(c2ccc(OC)cc2)C2OC(=O)c3ccccc32)cc1 (stereo not drawn)
> 100 µM
Cc1cc(NS(=O)(=O)c2ccc(NC(=O)c3cccc4c(Nc5ccc(S(=O)(=O)N=C(N)N)cc5)c5ccccc5nc34)cc2)no1
> 100 µM

# ---- query molecule ----
Task: Requested read-out: TGI. Entry: C/C(=N\NC(N)=S)C(CN(CC(C)C)CC(C)C)C(=O)Nc1ccc(C)cc1C (stereo not drawn)
Result: > 100 µM

----------
system: OVCAR-8 ovarian; test: NCI tumour cell line growth inhibition, 48 h
Here, each record is paired with measured TGI data.

// solved cases for TGI follow
COc1cc(/C=C2\CCC(CN(C)C)C2=O)ccc1OC(=O)c1ccccc1 (configuration not stated)
22 µM
Cc1sc(/N=C/c2c[nH]c3ccccc23)c(C#N)c1C
> 100 µM
Cc1cc(-c2nc3ccccc3s2)ccc1NC(=O)[C@H](C)N
37.4 µM
CN1CCN(Cc2ccc(NC(=O)c3ccc(C#Cc4c(N)ncc5ccc(F)cc45)cc3)cc2C(F)(F)F)CC1
1.81 µM
S=C1Nc2ccc(Cl)cc2C2(c3ccccc3)N3CCN=C3NN12 (configuration not stated)
> 100 µM

Task: Give its TGI value. Item: "COc1ccc2c(c1)C(c1ccccc1Cl)=Nc1c(n[nH]c1C)N2"
Result: > 25 µM

Task: Any idea what its TGI is? The compound is CC(=O)O[C@H]1CCC(C)=CCC[C@@]2(C)C(CC[C@@H]2[C@@H](C)/C=C/C(C)C)c2ccc(cc2C(=O)O)C1 (some centres not stated)
Result: 14 µM

Task: If you can, please state the reported TGI value of "Cc1cc(=O)oc2cc(OCc3c(F)cccc3Cl)ccc12" .
Result: > 100 µM

Task: Looking for the measured TGI of "CN(C)C(=O)c1cc2cnc(Nc3ccc(-c4csc5c(=O)cc(N6CCOCC6)oc45)cc3)nc2n1C1CCCC1" , can you help?
Result: > 30.5 µM

Task: Query (compound): "Cc1c2c[n+](C(C)C)ccc2c(C)c2c1[nH]c1ccccc12" ; field requested: TGI
Result: 32.1 µM

Task: Query (compound): COc1ccc(Cl)cc1NC(=O)C(Br)C(Br)C(=O)O (configuration not stated) ; field requested: TGI
Result: > 100 µM

----------
system: OVCAR-8 ovarian; experiment: NCI tumour cell line growth inhibition, 48 h
endpoint_label: TGI (µM)
Express it in µM; write the number only.

c1ccc2c(c1)[nH]c1cnc3c4cccnc4[nH]c3c12
32

Now for another entry.
Task: Kindly state the measured TGI obtained for "CCCCCCCCCCCCSC(=N)N" with OVCAR-8 ovarian.
Result: 23.4

----------
tested on: DU-145 prostate; experiment: NCI tumour cell line growth inhibition, 48 h
Parameter TGI: see the listing below.
API: value field is a number in µM; no unit string.

Nc1ccccc1N/C=C\C(=O)C(Cl)(Cl)Cl
75.1
CO[C@@H]1CC(=O)C2(CC(=O)O[C@@H]2/C=C(\C)CCC=C(C)C)C[C@@H]1O (stereo partly drawn)
1.55

Task: Dear colleague, I am looking for the recorded TGI of the following compound: "c1ccc(-n2nnnc2-c2cccc3ccccc23)cc1"
Result: 6.86

Task: Field request: TGI | item: CC[C@H](C)[C@H]1NC(=O)[C@@H](NC(=O)[C@@H](CC(C)C)N(C)CC2CCCN2C(=O)C(C)=O)[C@@H](C)OC(=O)[C@H](Cc2ccc(OC)cc2)N(C)C(=O)C2CCCN2C(=O)[C@H](CC(C)C)NC(=O)[C@@H](C)C(=O)[C@H](C(C)C)OC(=O)C[C@@H]1O (stereo partly drawn)
Result: 0.0032
